Attribute: binding signal
Target: dAsCas12a Ultra (Acidaminococcus sp., UniProt U2UMQ6 1-1307, M537R;F870L;D908A;E993A;D1235A)
Assay: Spec-seq (native PAGE EMSA with sequencing of bound and unbound); 25 mM Tris-HCl pH 7.4, 150 mM KCl, 5 mM MgCl2, 10% glycerol, 1 mM DTT, 40 ng/uL salmon sperm DNA; 400 nM Cas12a, 480 nM crRNA, 50 nM library, 37 C 1 h; native PAGE at room temperature; high values mean tight binding
Conditions: protein: recombinant
Use lnKA as the unit, but write only the number.

{"Binder": "AGTC (dsDNA) DNA 1: GCTATCTAGTGCTCAGTACGCACTGAGTCAGGAAACTTCTGGCAGGACCAGGTCATGAGATCGGAAGAGCACACGTCTGAACTCCAGTCA DNA 2: TGACTGGAGTTCAGACGTGTGCTCTTCCGATCTCATGACCTGGTCCTGCCAGAAGTTTCCTGACTCAGTGCGTACTGAGCACTAGATAGC RNA: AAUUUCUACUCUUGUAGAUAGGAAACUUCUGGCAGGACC", "Measurement units": "lnKA", "binding signal": -8.75}
{"Binder": "CTTG (dsDNA) DNA 1: GCTATCTAGTGCTCAGTACGCACTGCTTGAGGAAACTTCTGGCAGGACCAGGTCATGAGATCGGAAGAGCACACGTCTGAACTCCAGTCA DNA 2: TGACTGGAGTTCAGACGTGTGCTCTTCCGATCTCATGACCTGGTCCTGCCAGAAGTTTCCTCAAGCAGTGCGTACTGAGCACTAGATAGC RNA: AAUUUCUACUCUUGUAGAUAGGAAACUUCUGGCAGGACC", "Measurement units": "lnKA", "binding signal": -5.08}
{"Binder": "GGGA (dsDNA) DNA 1: GCTATCTAGTGCTCAGTACGCACTGGGGAAGGAAACTTCTGGCAGGACCAGGTCATGAGATCGGAAGAGCACACGTCTGAACTCCAGTCA DNA 2: TGACTGGAGTTCAGACGTGTGCTCTTCCGATCTCATGACCTGGTCCTGCCAGAAGTTTCCTTCCCCAGTGCGTACTGAGCACTAGATAGC RNA: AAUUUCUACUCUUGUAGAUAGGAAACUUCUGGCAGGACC", "Measurement units": "lnKA", "binding signal": -8.93}
{"Binder": "TCCG (dsDNA) DNA 1: GCTATCTAGTGCTCAGTACGCACTGTCCGAGGAAACTTCTGGCAGGACCAGGTCATGAGATCGGAAGAGCACACGTCTGAACTCCAGTCA DNA 2: TGACTGGAGTTCAGACGTGTGCTCTTCCGATCTCATGACCTGGTCCTGCCAGAAGTTTCCTCGGACAGTGCGTACTGAGCACTAGATAGC RNA: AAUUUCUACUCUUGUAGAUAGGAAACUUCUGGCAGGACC", "Measurement units": "lnKA", "binding signal": -7.52}

Input line: Returns the measured binding signal for the input binder. Input: TATC (dsDNA) DNA 1: GCTATCTAGTGCTCAGTACGCACTGTATCAGGAAACTTCTGGCAGGACCAGGTCATGAGATCGGAAGAGCACACGTCTGAACTCCAGTCA DNA 2: TGACTGGAGTTCAGACGTGTGCTCTTCCGATCTCATGACCTGGTCCTGCCAGAAGTTTCCTGATACAGTGCGTACTGAGCACTAGATAGC RNA: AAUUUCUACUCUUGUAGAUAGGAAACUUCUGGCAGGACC
Output line: -7.72
